Values compiled from patent US11834414B2.

# Lookup of reported log10(hepatocyte CLint at 1 μM) keyed by entry
Experiment: Rat hepatocyte stability
Assay type: in vitro ADME
Conditions: rat, pooled rat hepatocytes, 60 minute incubation, read-out: Rat Clint (μL/min/million cells)
# values: log10(hepatocyte CLint at 1 μM), units µL/min/1e6 cells

molecule=C[C@]1(O)CC[C@H](CS(=O)(=O)c2ccc(-c3ccc(F)cc3F)cc2)CC1 observed=1.71
molecule=C[C@]1(O)CC[C@@H](CS(=O)(=O)c2ccc(-c3ccc(Cl)cc3C#N)cc2)CC1 observed=2.17

In plain terms, C[C@]1(O)CC[C@H](NS(=O)(=O)c2ccc(-c3ccc(Cl)cc3C#N)cc2)CC1 [HMC-C-01-A, reference compound] has a documented log10(hepatocyte CLint at 1 μM) of 2.27

In plain terms, C[C@]1(O)CC[C@H](CS(=O)(=O)c2ccc(-c3ccc(Cl)cc3C#N)cc2)CC1 has a documented log10(hepatocyte CLint at 1 μM) of 2.53

In plain terms, C[C@]1(O)CC[C@@H](CS(=O)(=O)c2ccc(-c3ccc(C#N)cc3F)cc2)CC1 has a documented log10(hepatocyte CLint at 1 μM) of 1.09

In plain terms, C[C@]1(O)CC[C@@H](CS(=O)(=O)c2ccc(-c3ccc(C#N)cc3F)cc2C(F)(F)F)CC1 has a documented log10(hepatocyte CLint at 1 μM) of 2.01

In plain terms, C[C@]1(O)CC[C@@H](CS(=O)(=O)c2ccc(-c3ccc(F)cc3F)cc2)CC1 has a documented log10(hepatocyte CLint at 1 μM) of 1.57

In plain terms, C[C@]1(O)CC[C@@H](CS(=O)(=O)c2ccc(-c3ncc(F)cc3F)c(F)c2)CC1 has a documented log10(hepatocyte CLint at 1 μM) of 1.16

In plain terms, C[C@]1(O)CC[C@H](NS(=O)(=O)c2ccc(-c3ccc(F)cc3F)cc2)CC1 [ABD900, reference compound] has a documented log10(hepatocyte CLint at 1 μM) of 1.90
